Taken from PubChem BioAssay.

Molecular target: Alpha-bungarotoxin (Bungarus multicinctus) (UniProt P60615)
Sequence (P60615 whole entry, looked up): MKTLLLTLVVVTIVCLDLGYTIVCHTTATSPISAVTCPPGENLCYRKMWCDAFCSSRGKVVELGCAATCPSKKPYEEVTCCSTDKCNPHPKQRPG
Assay: compounds binding labelled alpha-BTX control protein – biochemical, small-molecule microarray, Alexa647 label, 635/667 nm fluorescence, artefact control for SMM control protein annotation, profiling panel (AID 1117)
Details: alpha-BTX-A647 binding fluorescence, higher = more signal
Documented composite z-score across a set of compounds
measurement-name: composite z-score

- COC(=O)[C@]1(Cc2ccccc2N=[N+]=[N-])N=C(c2ccc(OCCCO)cc2)O[C@@H]1c1ccccc1: 0.41
- O=C1C[C@@](C(=O)NCc2ccccc2)(c2ccc([N+](=O)[O-])cc2)[C@@H](c2ccc(CO)cc2I)N1C1CCCCC1: 0.414
- C/C=C/[C@@H](CCn1cc([C@H](O)c2ccccc2)nn1)[Si](C)(C)c1ccc(OC)cc1: 0.478
- CCCNC(=O)[C@@H]1c2ccccc2C(=O)N(CC23CC4CC(CC(C4)C2)C3)[C@H]1c1ccc(CO)cc1: 0.88
- [N-]=[N+]=Nc1ccccc1[C@H]1OC(c2ccc(OCCCO)cc2)=N[C@@]1(Cc1ccccc1)C(=O)NCc1ccccc1: 0.421
- Cc1ccc(-c2cccc(=O)o2)cc1: -0.391
- COC(=O)[C@@]1(Cc2ccccc2)[C@H]2c3cc(C(=O)N4CCCC4)n(Cc4ccc(OC(F)(F)F)cc4)c3C[C@H]2CN1C(=O)c1ccccc1: 1.35
- CC1=C2[C@@H](CCc3ccccc3)OB(O)C[C@@H]2[C@@H]2C(=O)C=CC(=O)[C@@H]2C1: 1.2
